system: EKVX NSCLC; assay: NCI tumour cell line growth inhibition, 48 h
measurement-label: TGI

Input: Given CC1=C/C(=N/N2C(=O)/C(=C/c3ccc(Cl)cc3)N=C2c2ccccc2)CC(C)(C)C1 , respond with its TGI.
Output: > 100 µM

***
Input: Given O=c1ccc2ccccc2o1 , respond with its TGI.
Output: > 100 µM

Input: Given Cc1ccc(NS(=O)(=O)c2cc(C(C)(C)C)ccc2OCCOCCOCCOc2ccc(C(C)(C)C)cc2S(=O)(=O)Nc2ccc(C)cc2)cc1 , respond with its TGI.
Output: > 100 µM

Input: Given CC[C@@]1(O)C(=O)OCc2c1cc1n(c2=O)Cc2cc3cc(OC)ccc3nc2-1 , respond with its TGI.
Output: > 100 µM

Input: Given N#C/C(=C/C=C(\Cl)c1ccc(Cl)cc1)C(N)=O , respond with its TGI.
Output: 17.4 µM
